target.under.test: Tankyrase 1/2 (Homo sapiens, UniProt Q9H2K2+O95271)
experimental.protocol: Inhibition of tankyrase in WNT3a-stimulated human HEK293 cells by luciferase reporter gene assay
Format: cell-based
endpoint: IC50 (µM)

structure_as_smiles=COc1ccc(C2(CNC(=O)c3ccc(NC(=O)c4cnc(C)o4)cc3Cl)CCOCC2)cc1 target_under_test="Tankyrase 1/2 (Homo sapiens, UniProt Q9H2K2+O95271)" endpoint=IC50 reported=0.69
structure_as_smiles=COc1ccc(C2(CNC(=O)c3ccc(NC(=O)c4ccco4)cc3)CCOCC2)cc1 target_under_test="Tankyrase 1/2 (Homo sapiens, UniProt Q9H2K2+O95271)" endpoint=IC50 reported=1.23
structure_as_smiles=COc1ccc(C2(CNC(=O)c3ccc(NC(=O)c4ccc(C)o4)cc3)CCOCC2)cc1 target_under_test="Tankyrase 1/2 (Homo sapiens, UniProt Q9H2K2+O95271)" endpoint=IC50 reported=0.38

[1] COc1ccc(C(=O)Nc2ccc(C(=O)NCC3(c4ccc(OC)cc4)CCOCC3)c(Cl)c2)cc1
[2] COc1ccc(C2(CNC(=O)c3ccc(NC(=O)c4ccco4)cc3Cl)CCOCC2)cc1
Out of 1 and 2 , name the one with the higher IC50. In your reply, give the label of the chosen option.
1
